# protocol: in vitro
# condition: African green monkey
readout_type: CC50

Below are worked cases with known answers.
compound	CC50
COc1cc2cc3c(c(-c4ccc(N(C)Cc5cccs5)nc4)c2cc1OC)C(=O)OC3	> 50 µM
CCN(CC)CCNc1c2c(cc3cc(OC)c(OC)cc13)COC2=O	> 50 µM
COCCN(C)c1ccc(-c2c3c(cc4cc(OC)c(OC)cc24)COC3=O)cn1.Cl [Example 168, hydrochloride]	> 50 µM
COc1cc2cc3c(c(-c4cnc(NC5CC5)nc4)c2cc1OC)C(=O)OC3	> 50 µM
CCCCN(C)c1ccc(-c2c3c(cc4cc(OC)c(OC)cc24)COC3=O)cn1	> 50 µM
CCCCCCOCCN(CCCCCC)c1ncc(-c2c3c(cc4cc(OC)c(OC)cc24)COC3=O)cn1	> 50 µM
COc1ccc(CN(C)c2ccc(-c3c4c(cc5cc(OC)c(OC)cc35)COC4=O)cn2)c(OC)c1.Cl	> 50 µM
COc1cc2cc3c(c(-c4cnc(N5CCSCC5)nc4)c2cc1OC)C(=O)OC3	> 50 µM

What the record says about CNc1ccc(-c2c3c(cc4cc(OC)c(OC)cc24)COC3=O)cn1 : CC50 is > 50 µM

The reported CC50 of the compound COc1cc2cc3c(c(-c4cnc(N5CCC[C@@H]5CO)nc4)c2cc1OC)C(=O)OC3.Cl [Example 82, hydrochloride] was > 50 µM

The recorded CC50 for CCN(c1ccc(-c2c3c(cc4cc(OC)c(OC)cc24)COC3=O)cn1)C1CCCC1 is > 50 µM

* * *

# System: SARS-COV-2
# protocol: microbe, parasite or virus in culture
# Format: cell-based
# condition: Severe acute respiratory syndrome coronavirus 2; Vero cells, 24 hours infection; read-out: SARS-COV-2 inhibition (IC50)
# pIC50 annotations
# pIC50: negative log10 of molar concentration; output just the value

Below, each entry is followed by its recorded pIC50 result.
compound	measurement
CCOC(=O)C1CCCN(c2ncc(-c3c4c(cc5cc(OC)c(OC)cc35)COC4=O)cn2)C1 (stereo not drawn) [Example 15]	5.36
COc1cc2cc3c(c(-c4cncc(OC(C)C)c4)c2cc1OC)C(=O)OC3 [Example 200]	4.55
COc1cc2cc3c(c(-c4cnc(N(C)C5CCOCC5)nc4)c2cc1OC)C(=O)OC3 [Example 115]	5.99
COc1cc2cc3c(c(-c4ccc(N(C)CC(OC)OC)nc4)c2cc1OC)C(=O)OC3 [Example 162]	5.37
CCN(CCOC)c1ccc(-c2c3c(cc4cc(OC)c(OC)cc24)COC3=O)cc1 [Example 253]	5.61

Form: compound = COc1cc2cc3c(c(-c4ccc5nccnc5c4)c2cc1OC)C(=O)OC3 [Example 40] ; pIC50 = 6.19

pIC50 in this record for CCN(Cc1ccncc1)c1ccc(-c2c3c(cc4cc(OC)c(OC)cc24)COC3=O)cn1 [Example 226] : 5.17

Reported pIC50 ( COc1cc2cc3c(c(-c4ccc5cccnc5c4)c2cc1OC)C(=O)OC3 [Example 118] ) = 6.72

Notebook: COc1cc2cc3c(c(-c4ccc(N(C)Cc5cccnc5)cc4)c2cc1OC)C(=O)OC3 [Example 255] , pIC50 read as 5.50

Documented pIC50 of CCN(Cc1ccccc1C(F)(F)F)c1ccc(-c2c3c(cc4cc(OC)c(OC)cc24)COC3=O)cn1 [Example 209] : 5.46

Recorded pIC50 (compound COc1cc2cc3c(c(-c4ccc(N5CCC(C)CC5)nc4)c2cc1OC)C(=O)OC3 [Example 159] ): 5.82

* * *

# System: SARS-COV-2
# protocol: microbe, parasite or virus in culture
# Type: cell-based
# condition: Severe acute respiratory syndrome coronavirus 2; Vero cells, 24 hours infection; read-out: SARS-COV-2 inhibition (IC50)
readout_type: pIC50
Friendly reminder that pIC50 comes from taking -log10 of the concentration in mol/L.

Some solved cases for reference:
compound	measurement_target	pIC50
COc1cc2cc3c(c(-c4cnc(N5CC(C)CC(C)C5)nc4)c2cc1OC)C(=O)OC3 (stereo not drawn)	SARS-COV-2	5.38
COc1cc2cc3c(c(-c4ccc(C(F)(F)F)c5cccnc45)c2cc1OC)C(=O)OC3	SARS-COV-2	5.36
COc1cc2cc3c(c(-c4ccc5nccc(Cl)c5c4)c2cc1OC)C(=O)OC3	SARS-COV-2	4.42
CCC(C)CN(C)c1ncc(-c2c3c(cc4cc(OC)c(OC)cc24)COC3=O)cn1 (stereo not drawn)	SARS-COV-2	5.59
COc1cc2cc3c(c(-c4cnc(Cl)c(N(C)C)c4)c2cc1OC)C(=O)OC3	SARS-COV-2	5.90
COc1cc2cc3c(c(-c4ccc(N5CCc6sccc6C5)nc4)c2cc1OC)C(=O)OC3	SARS-COV-2	5.99

The reported value for COc1cc2cc3c(c(-c4cnc(N(C)c5ccc(C)c(C)c5)nc4)c2cc1OC)C(=O)OC3 in terms of pIC50 is 5.57

Value of pIC50 reported for the compound COc1cc2cc3c(c(-c4cnc(N(C)C5CC5)nc4)c2cc1OC)C(=O)OC3 is 6.27

For record COc1cc2cc3c(c(-c4ccc(N5CCCC(c6cccc(C)c6)C5)nc4)c2cc1OC)C(=O)OC3 (stereo not drawn) the listed pIC50 is 6.00

GET /value?item= COc1cc2cc3c(c(-c4cnc(N5CCC[C@H]5C(=O)NCc5ccc(C)o5)nc4)c2cc1OC)C(=O)OC3 &field=pIC50 returns 4.82

So, COc1cc2cc3c(c(-c4ccc(N5CCCCC5)nc4)c2cc1OC)C(=O)OC3 ? Its pIC50 was 6.47

# compound COc1cc2cc3c(c(-c4cnc(N5CCN(C)CC5)nc4)c2cc1OC)C(=O)OC3 ; its pIC50 = 4.87

* * *

# Test system: SARS-COV-2
# protocol: microbe, parasite or virus in culture
# Format: cell-based
# condition: read-out: SARS-COV-2 inhibition (IC50)
readout_type: IC50 (µM)
Report the figure in µM without appending any unit label.

Entry COc1cc2cc3c(c(-c4cnc(N(C)c5ccc(C)c(C)c5)nc4)c2cc1OC)C(=O)OC3.Cl — recorded IC50 = 4.41

* * *

This section presents compounds with their documented SI (Selectivity Index, CC50/IC50) values.
# Tested on: SARS-COV-2
# protocol: microbe, parasite or virus in culture
# Type: cell-based
# Design: unit not given here
# condition: SARS-COV-2; values >50 assumed to be 50
No unit in the answer, only the number.

CCCCN(CCCC)c1ncc(-c2c3c(cc4cc(OC)c(OC)cc24)COC3=O)cn1 6.53
COc1cc2cc3c(c(-c4cccc5cccnc45)c2cc1OC)C(=O)OC3 1.0

Given item CCN(Cc1ccccc1C(F)(F)F)c1ccc(-c2c3c(cc4cc(OC)c(OC)cc24)COC3=O)cn1 , the value recorded as its SI (Selectivity Index, CC50/IC50) is 14.52

COc1cc2cc3c(c(-c4ccc(N(C)C5CC5)nc4)c2cc1OC)C(=O)OC3 yielded SI (Selectivity Index, CC50/IC50) of 885.42

* * *

# System: SARS-COV-2
# protocol: microbe, parasite or virus in culture
# Format: cell-based
# Parameters: unit not given here
# condition: SARS-COV-2; values >50 assumed to be 50
Counter-ions that a name gives are not always drawn.
Let's look at some molecules and their measured SI (Selectivity Index, CC50/IC50).
Could you keep your reply to the number by itself?

molecule	readout_type	measurement
COc1cc2cc3c(c(-c4ccc(N(C)CC5CCCO5)nc4)c2cc1OC)C(=O)OC3 (stereo not shown) [Example 192]	SI (Selectivity Index, CC50/IC50)	10.08
CCN(c1ccc(-c2c3c(cc4cc(OC)c(OC)cc24)COC3=O)cn1)C1CCCC1 [Example 191]	SI (Selectivity Index, CC50/IC50)	35.47
COCCOc1cncc(-c2c3c(cc4cc(OC)c(OC)cc24)COC3=O)c1 [Example 173]	SI (Selectivity Index, CC50/IC50)	1.0
COc1cc2cc3c(c(-c4cnc(N(C)C(C)C)nc4)c2cc1OC)C(=O)OC3 [Example 23]	SI (Selectivity Index, CC50/IC50)	61.34
COc1cc2cc3c(c(-c4ccc(N(C)c5ccc(N(C)C(C)=O)cc5)nc4)c2cc1OC)C(=O)OC3.Cl [Example 236]	SI (Selectivity Index, CC50/IC50)	30.25
COc1cc2cc3c(c(-c4ccc(N(C)C(C)=O)nc4)c2cc1OC)C(=O)OC3 [Example 230]	SI (Selectivity Index, CC50/IC50)	2.45
COc1cc2cc3c(c(-c4ccc(N(C)Cc5ccccc5C(F)(F)F)nc4)c2cc1OC)C(=O)OC3 [Example 208]	SI (Selectivity Index, CC50/IC50)	18.96
COc1cc2cc3c(c(-c4cc5c(cc4OP(=O)(NCCN4CCOCC4)c4ccccc4)OCO5)c2cc1OC)C(=O)OC3 (stereo not shown) [Example 280]	SI (Selectivity Index, CC50/IC50)	25.56

The molecule identified as COc1cc2cc3c(c(-c4cccc(N5CCCCC5)c4)c2cc1OC)C(=O)OC3 [Example 243] registered its SI (Selectivity Index, CC50/IC50) at 3.26

// COc1cc2c(OC)c3c(c(-c4ccc(-n5cc(C#N)c(N(C)C)n5)nc4)c2cc1OC)COC3=O [Example 264] : SI (Selectivity Index, CC50/IC50) value = 1.00

The measured SI (Selectivity Index, CC50/IC50) associated with COc1cc2cc3c(c(-c4ccc(N(C)C(=O)C(C)(C)C)nc4)c2cc1OC)C(=O)OC3 [Example 233] reads 1.00

The value of SI (Selectivity Index, CC50/IC50) measured for the molecule COc1cc2cc3c(c(N4CCc5sccc5C4)c2cc1OC)C(=O)OC3 [Example 3] turned out to be 8.48

The molecule identified as COc1cc2cc3c(c(-c4cnc(N(C)Cc5ccc(C)o5)nc4)c2cc1OC)C(=O)OC3 [Example 103, hydrochloride] registered its SI (Selectivity Index, CC50/IC50) at 175.17

Query COc1cc2cc3c(c(-c4ccc(N5CCCCC5)nc4)c2cc1OC)C(=O)OC3 [Example 123] yields SI (Selectivity Index, CC50/IC50) of 145.26

Just so you know, measured SI (Selectivity Index, CC50/IC50) for COc1cc2cc3c(c(-c4ccnc5c(OC)cccc45)c2cc1OC)C(=O)OC3 [Example 140] came out at 1.0

Measured SI (Selectivity Index, CC50/IC50) of COc1cc2cc3c(c(-c4ccc(N5CCOCC5)nn4)c2cc1OC)C(=O)OC3 [Example 219] : 1.00

Query COc1cc2cc3c(c(-c4ccc(N(C)C5Cc6ccccc6C5)nc4)c2cc1OC)C(=O)OC3 [Example 194] yields SI (Selectivity Index, CC50/IC50) of 33.63

The molecule COCCN(C)C(=O)[C@@H]1CCCN1c1ncc(-c2c3c(cc4cc(OC)c(OC)cc24)COC3=O)cn1 [Example 33] showed SI (Selectivity Index, CC50/IC50) equal to 1.00

GET /value?item= COc1cc2cc3c(c(-c4cnc(N5CCC6(CC5)OCCO6)nc4)c2cc1OC)C(=O)OC3 [Example 89] &field=SI (Selectivity Index, CC50/IC50) returns 1.00

Per the records, this molecule ( COc1cc2cc3c(c(-c4cnc(N(C)c5cccc(C(F)(F)F)c5)nc4)c2cc1OC)C(=O)OC3 [Example 216] ) has SI (Selectivity Index, CC50/IC50) equal to 52.13

SI (Selectivity Index, CC50/IC50) in this record for COc1ccc(CN(C)c2ccc(-c3c4c(cc5cc(OC)c(OC)cc35)COC4=O)cn2)c(OC)c1.Cl [Example 232] : 15.36

get_value(item= COc1cc2cc3c(c(-c4cccc(N5CCOCC5)c4)c2cc1OC)C(=O)OC3 [Example 244] , readout=SI (Selectivity Index, CC50/IC50)) returns 1.00

What the record says about COc1cc2cc3c(c(-c4cnc(N5C[C@H](C)O[C@@H](C)C5)nc4)c2cc1OC)C(=O)OC3 [Example 62] : SI (Selectivity Index, CC50/IC50) is 1.00

In plain terms, COc1cc2c(OC)c3c(c(-c4ccc(N(C)c5cccc(C(F)(F)F)c5)nc4)c2cc1OC)COC3=O.Cl [Example 263] has a documented SI (Selectivity Index, CC50/IC50) of 1.00
